Data provenance is patent US20250074892A1.

Recorded measurements of IC50, one per entry
Test system: L929 cells
Method Notes: Inhibition of cell necrosis (CCK8 method), L929 cells
Format: cell-based, mouse
Test Context: Mus musculus, L929, L929, Murine TNF-α/Z-VAD-FMK, 4-8 hours, CCK8
Protocol: In this assay example 2, under the condition of inducing programmed cell necrosis of HT29 and L929 cell lines, different concentrations of the test compounds were added to test the IC50 of the rescue effect of the test compounds on the programmed necrosis. […] 5. […] Cell viability was detected by CCK8. GraphPad Prism software was used to prepare a dose-effect curve and IC50 was calculated.

O=C(C1CCN(c2cc(-c3cccc(OC4CCOCC4)c3)ccn2)CC1)N1N=CCC1c1cc(F)cc(F)c1 (stereo not shown) [Example 3] ... 50 to 100 nM

I would be grateful if you could share the reported IC50 for O=C(C1CCN(c2cc(-c3cc(OCCCCO)ccc3F)ccn2)CC1)N1N=CCC1c1cc(F)cc(F)c1 (stereo not shown) [Example 36] . 50 to 100 nM

Same again, this time with O=C(C1CCN(c2cc(-c3cccc(OCCCCO)c3)ccn2)CC1)N1N=CCC1c1cc(F)cc(F)c1 (stereo not shown) [Example 7] 10 to 50 nM

Same again, this time with Cc1ccc(OCCC2CCOCC2)cc1-c1ccnc(N2CCC(C(=O)N3N=CCC3c3cc(F)cc(F)c3)CC2)c1 (stereo not shown) [Example 11] 50 to 100 nM

* * *

Method Notes: Rat PK&BBB (pharmacokinetics and brain penetration)
Type: in vivo, SD rats
Test Context: SD, whole blood, PO 30 mg/kg
Reported Property: AUC(0-t)

O=C(C1CCN(c2cc(-c3cc(OCCCO)ccc3F)ccn2)CC1)N1N=CC[C@H]1c1cc(F)cc(F)c1 (racemic) [Example 40] ... 1900 ng·h/mL

I would be grateful if you could share the reported AUC(0-t) for O=C(C1CCN(c2cc(-c3cc(OCCCO)ccc3F)ccn2)CC1)N1N=CCC1c1cc(F)cc(F)c1 (racemic) [Example 18] . 922 ng·h/mL

Same again, this time with CC(C)(O)COc1ccc(F)c(-c2ccnc(N3CCC(C(=O)N4N=CC[C@H]4c4cc(F)cc(F)c4)CC3)c2)c1 (racemic) [Example 42] 24200 ng·h/mL

* * *

Method Notes: Mouse PK&BBB (pharmacokinetics and brain penetration)
Type: in vivo, CD-1 mice
Test Context: CD-1, mouse, whole blood, po, 20 mg/kg, PO 20 mg/kg, 7 hr, read-out: Blood drug concentration
Method: In this assay, the pharmacokinetic characteristics and ability to penetrate the blood-brain barrier of the compounds of the present application were assayed after administration of some of the compounds of the present application to SD rats, CD-1 mice or beagle dogs by single oral administration and intravenous injection. 1. […] Pharmacokinetic parameters were calculated using WinNonlin software. […]
Reported Property: concentration at 7 hr

I would be grateful if you could share the reported concentration at 7 hr for O=C(C1CCN(c2cc(-c3cc(OCCCO)ccc3F)ccn2)CC1)N1N=CC[C@H]1c1cc(F)cc(F)c1 (racemic) [Example 40] . 4.85 ng/mL

* * *

Method Notes: Beagle PK (pharmacokinetics)
Type: in vivo, beagle dogs
Test Context: whole blood; Beagle dog, IV 1 mg/kg, 2 hr; read-out: Blood drug concentration
Reported Property: concentration at 2 h
Respond with the figure and its unit, in that order.

CC(C)(O)COc1ccc(F)c(-c2ccnc(N3CCC(C(=O)N4N=CC[C@H]4c4cc(F)cc(F)c4)CC3)c2)c1 (racemic) [Example 42] ... 236 ng/mL

I would be grateful if you could share the reported concentration at 2 h for O=C(C1CCN(c2cc(-c3cc(OCCCO)ccc3F)ccn2)CC1)N1N=CCC1c1cc(F)cc(F)c1 (racemic) [Example 18] . 57.9 ng/mL
